Molecular target: Prostaglandin E2 receptor EP1 subtype (Homo sapiens)
Sequence (P34995 whole entry): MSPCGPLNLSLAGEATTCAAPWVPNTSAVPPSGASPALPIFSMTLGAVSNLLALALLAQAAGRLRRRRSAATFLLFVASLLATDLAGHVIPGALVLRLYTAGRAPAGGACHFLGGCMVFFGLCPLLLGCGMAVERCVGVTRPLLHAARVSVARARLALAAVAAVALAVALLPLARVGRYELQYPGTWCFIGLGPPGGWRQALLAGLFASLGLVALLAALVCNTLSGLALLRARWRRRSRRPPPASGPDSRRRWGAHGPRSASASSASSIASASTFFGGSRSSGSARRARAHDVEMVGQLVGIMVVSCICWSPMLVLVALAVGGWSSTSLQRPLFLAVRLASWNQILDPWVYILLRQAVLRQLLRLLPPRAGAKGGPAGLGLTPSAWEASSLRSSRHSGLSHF
Assay: Displacement of [3H]PGE2 from human recombinant EP1 receptor expressed in CHO cell membranes
measurement_name: IC50 (nM)

# smiles, system_under_test, IC50, nM
records = [
    ("Cc1ccc(-c2cc(C(F)(F)F)ccc2OCc2ccc(F)cc2)n1-c1cc(C(=O)O)cc(N2CCCS2(=O)=O)c1", "Prostaglandin E2 receptor EP1 subtype (Homo sapiens)", 7.94),
    ("Cc1ccc(-c2cc(Br)ccc2OCc2ccc(F)cc2F)n1-c1cc(Cl)cc(C(=O)O)c1", "Prostaglandin E2 receptor EP1 subtype (Homo sapiens)", 3.98),
    ("Cc1ccc(-c2cc(Cl)ccc2OCc2ccc(F)cc2F)n1-c1cc(C(=O)O)ccc1F", "Prostaglandin E2 receptor EP1 subtype (Homo sapiens)", 6.31),
    ("CC(=O)Nc1cc(C(=O)O)cc(-n2c(C)ccc2-c2cc(Br)ccc2OCc2ccc(F)cc2F)c1", "Prostaglandin E2 receptor EP1 subtype (Homo sapiens)", 0.398),
    ("CC(=O)Nc1cc(C(=O)O)cc(-n2c(C)ccc2-c2cc(Br)ccc2OCc2ccccc2)c1", "Prostaglandin E2 receptor EP1 subtype (Homo sapiens)", 1.26),
]

1 = Cc1ccc(-c2cc(Br)ccc2OCc2ccccc2)n1-c1cc(N)cc(C(=O)O)c1
2 = Cc1ccc(-c2cc(Br)ccc2OCc2ccc(F)cc2)n1-c1cc(C(=O)O)ccc1F
Q. Field: entry with larger IC50 (options 1 / 2 ). Your answer should be the label of the entry you select.
A. 2
(2: 6.31 nM, 1: 3.16 nM)

a = CC(=O)Nc1cc(C(=O)O)cc(-n2c(C)ccc2-c2cc(Cl)ccc2OCc2ccccc2)c1
b = Cc1ccc(-c2cc(Cl)ccc2OCc2ccccc2)n1-c1cc(Br)cc(C(=O)O)c1
Q. For the pair a and b , which member has the lower IC50 number? Your answer should be the label of the entry you select.
A. a
